Tested on: CCRF-CEM leukemia
protocol notes: NCI-60 one-dose screen, 48 h (100 = growth as untreated, 0 = no growth, -100 = all killed)
assay setup: 10 µM unless noted
The panel holds about 83,000 compounds, 20% with a hit somewhere; the sample as a whole holds those more often.
Provide the reported growth of each item.
Numbers only, in %.

INSERT INTO results (molecule, assay_readout, recorded_value) VALUES
  ('Oc1c(I)cc(I)cc1CNCCN(Cc1ccccn1)Cc1ccccn1', 'growth', -10.1),
  ('CC(C)=CCCC(C)c1ccc(C)c2c1OCN(CCCCCO)C2 (configuration not stated)', 'growth', 96),
  ('COc1ccc2c(c1OC)CO[C@@H]2[C@H]1c2c(cc3c(c2OC)OCO3)CCN1S(=O)(=O)c1cn(C)cn1', 'growth', 21.4),
  ('Clc1cc(Cl)c(Cl)c(-c2nnc(SCc3ccncc3Br)o2)c1', 'growth', 77.1),
  ('CCCCCCCCCCCCCCCCCCOc1ccccc1CC(=O)OCC[N+](C)(C)C', 'growth', 5.24);

Below are 8 molecules. Give each one its growth.
1. Cc1ccc(C)n1-c1ccccc1-n1c(C)ccc1C
2. O=S(=O)(NCCNc1nccc(-c2c(-c3ccc(F)c(O)c3)nc3sccn23)n1)c1ccc(O)cc1
3. C=C(C)[C@@H]1CCC[C@]2(COS(=O)(=O)c3ccc(C)cc3)CC[C@]3(C)[C@@H](CC[C@@H]4[C@@]5(C)CCCNC(C)(C)[C@@H]5CC[C@]43C)[C@@H]12
4. Cc1cc(S(=O)(=O)/N=C(\N)n2nc(C)c(C)c2C)c(SCc2ccccc2)cc1Cl
5. Cc1ccc2c(n1)C(=O)C(Br)=C(CC(C)C)C2=O
6. CCOC(=O)c1ccc2c(c1)nc(-c1ccccc1)n2C1CCCCC1
7. C=C1C(=O)O[C@H]2[C@H]1CC/C(COC(=O)C(=O)c1cn(C)c3ccc(Cl)cc13)=C\CC[C@@]1(C)O[C@@H]21
8. O=C(CSc1oc(-c2ccccc2)nc1S(=O)(=O)c1ccccc1)Nc1ccc(F)cc1

1: 124; 2: 22.2; 3: 1.15; 4: 41.5; 5: 24.2; 6: 79.4; 7: -34.9; 8: 84.7

* * *

Test system: IGROV1 ovarian
protocol notes: NCI-60 one-dose screen, 48 h
assay setup: 10 µM unless noted
This is part of a sample that, as a whole, favours compounds with a hit. Of some 83,000 tested, about 20% had one in any assay. Active and inactive are the calls of the source. How the source made its calls: active means growth percent below 10; inactive means the rest.
Outcome field: choose from Yes for active, No for inactive

Some entries whose results are on file:
INSERT INTO measurements (compound, assigned_label) VALUES
  ('Cc1cc(S(=O)(=O)/N=C(\N)n2nc(C)c(C)c2C)c(SCc2ccccc2)cc1Cl', 'Yes'),
  ('COC(=O)C1Cc2ccccc2CN1C(=O)c1ccc2c(c1)Cc1ccccc1-2 (stereo not given)', 'No'),
  ('Ic1ccc(OCCCCn2ccnc2)cc1', 'No'),
  ('COc1cc(NS(=O)(=O)c2ccc(-c3cnc(C4CC4)o3)cc2)ccc1F', 'No');

Note: attention shifts to another entry.
Any idea what this test logged for CCn1cc(C(=O)O)c(=O)c2cc(F)c(N3CCN(CC(=O)Nc4ccc(S(=O)(=O)Nc5nccc(C)n5)cc4)C(C)C3)c(F)c21 (stereo not given) ?
No
